Molecular target: Opioid receptors; mu & delta (Homo sapiens, UniProt P41143+P35372)
Sequence (P35372 whole entry, looked up, one chain of several): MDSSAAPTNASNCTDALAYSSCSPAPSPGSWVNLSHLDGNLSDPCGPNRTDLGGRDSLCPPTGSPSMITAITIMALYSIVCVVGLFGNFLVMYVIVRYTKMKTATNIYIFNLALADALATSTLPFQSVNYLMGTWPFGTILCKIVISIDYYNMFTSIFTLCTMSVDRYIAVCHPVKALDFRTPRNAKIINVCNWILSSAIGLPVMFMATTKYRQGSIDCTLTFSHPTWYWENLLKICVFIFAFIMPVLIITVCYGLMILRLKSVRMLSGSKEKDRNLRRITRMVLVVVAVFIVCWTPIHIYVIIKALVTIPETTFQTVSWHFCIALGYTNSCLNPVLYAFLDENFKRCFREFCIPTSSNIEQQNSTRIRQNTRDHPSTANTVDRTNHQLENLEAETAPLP
Test: Antagonist activity at human mu-delta opioid receptor heterodimer expressed in CHO cell membranes assessed as inhibition of CYM51010-induced [35S]-GTPgammaS binding at high site fraction preincubated for 5 mins followed by CYM51010 and [35S]-GTPgammaS addition measured after 80 mins relative to control
Assay type: functional
Where a SMILES comes first, the peptide text is derived from it. [ ]: non-standard residue; d: D form. ξ: configuration not given here. ξTic = O=C(O)C1Cc2ccccc2CN1
Measurement type: Imax (%)

N[C@@H](Cc1ccc(O)cc1)C(=O)N1Cc2ccccc2CC1C(=O)O (stereo not given in full) (H-Tyr-[ξTic]-OH) = 44
NCCCC[C@@H](NC(=O)CCCNC(=O)CNC(=O)[C@H]1Cc2ccccc2CN1C(=O)[C@@H](N)Cc1ccc(O)cc1)C(=O)O = 28
N[C@@H](Cc1ccc(O)cc1)C(=O)N1Cc2ccccc2C[C@@H]1C(=O)NCC(=O)NCCCCC(=O)N[C@H](CCCCNC(=O)CNC(=O)[C@@H](Cc1cccc2ccccc12)NC(=O)[C@H](Cc1ccccc1)NC(=O)[C@@H]1CCCN1C(=O)[C@@H](N)Cc1ccc(O)cc1)C(=O)O = 39
N[C@@H](Cc1ccc(O)cc1)C(=O)N1Cc2ccccc2C[C@@H]1C(=O)NCC(=O)NCCCCC(=O)N[C@H](CCCCNC(=O)CCCCNC(=O)CNC(=O)[C@@H](Cc1cccc2ccccc12)NC(=O)[C@H](Cc1ccccc1)NC(=O)[C@@H]1CCCN1C(=O)[C@@H](N)Cc1ccc(O)cc1)C(=O)O = 39
N[C@@H](Cc1ccc(O)cc1)C(=O)N1Cc2ccccc2C[C@@H]1C(=O)NCC(=O)NCC(=O)N[C@H](CCCCNC(=O)CNC(=O)[C@@H](Cc1cccc2ccccc12)NC(=O)[C@H](Cc1ccccc1)NC(=O)[C@@H]1CCCN1C(=O)[C@@H](N)Cc1ccc(O)cc1)C(=O)O = 43

###

Biological target: Delta-type opioid receptor (Homo sapiens, UniProt P41143)
Sequence (P41143 whole entry): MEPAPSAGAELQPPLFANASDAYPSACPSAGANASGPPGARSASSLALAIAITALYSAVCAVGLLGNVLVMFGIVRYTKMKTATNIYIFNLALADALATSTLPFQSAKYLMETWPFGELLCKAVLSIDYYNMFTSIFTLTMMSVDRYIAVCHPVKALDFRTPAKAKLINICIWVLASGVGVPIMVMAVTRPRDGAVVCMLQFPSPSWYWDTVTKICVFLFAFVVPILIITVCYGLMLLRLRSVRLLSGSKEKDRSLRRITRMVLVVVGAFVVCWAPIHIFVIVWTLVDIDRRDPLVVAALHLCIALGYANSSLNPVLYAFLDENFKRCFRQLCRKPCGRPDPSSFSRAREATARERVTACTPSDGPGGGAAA
Assay: Antagonist activity at human DOR expressed in CHO cell membranes assessed as inhibition of CYM51010-induced [35S]-GTPgammaS binding preincubated for 5 mins followed by CYM51010 and [35S]-GTPgammaS addition measured after 80 mins
Format: functional
pIC50: −log10 of the molar value. Where a SMILES comes first, the peptide text is derived from it. [ ]: non-standard residue; d: D form. ξ: configuration not given here. ξTic = O=C(O)C1Cc2ccccc2CN1
Measurement type: pIC50

N[C@@H](Cc1ccc(O)cc1)C(=O)N1Cc2ccccc2CC1C(=O)O (stereo partly specified) (H-Tyr-[ξTic]-OH) = 7.00

###

Target: Delta-type opioid receptor (Homo sapiens)
Experiment: Displacement of [3H]-diprenorphine from human DOR expressed in CHO cell membranes after 80 mins by scintillation counting analysis
Settings: cho
pKi: −log10 of the molar value.
Measurement type: pKi

N[C@@H](Cc1ccc(O)cc1)C(=O)N1Cc2ccccc2C[C@H]1C(=O)NCC(=O)NCC(=O)NCCCCCC(=O)NCCC(=O)N[C@@H](CCCCNC(=O)CCNC(=O)CCCCCNC(=O)CCNC(=O)CNC(=O)[C@@H](Cc1cccc2ccccc12)NC(=O)[C@H](Cc1ccccc1)NC(=O)[C@@H]1CCCN1C(=O)[C@@H](N)Cc1ccc(O)cc1)C(=O)O = 6.64
NCCCC[C@H](NC(=O)CCCNC(=O)CNC(=O)[C@@H]1Cc2ccccc2CN1C(=O)[C@@H](N)Cc1ccc(O)cc1)C(=O)O = 6.60
N[C@@H](Cc1ccc(O)cc1)C(=O)N1Cc2ccccc2C[C@H]1C(=O)NCC(=O)NCCCC(=O)N[C@@H](CCCCNC(=O)CCNC(=O)CNC(=O)[C@@H](Cc1cccc2ccccc12)NC(=O)[C@H](Cc1ccccc1)NC(=O)[C@@H]1CCCN1C(=O)[C@@H](N)Cc1ccc(O)cc1)C(=O)O = 7.01
N[C@@H](Cc1ccc(O)cc1)C(=O)N1Cc2ccccc2C[C@H]1C(=O)NCC(=O)NCCC(=O)NCCCCCC(=O)N[C@@H](CCCCNC(=O)CCCCCNC(=O)CNC(=O)[C@@H](Cc1cccc2ccccc12)NC(=O)[C@H](Cc1ccccc1)NC(=O)[C@@H]1CCCN1C(=O)[C@@H](N)Cc1ccc(O)cc1)C(=O)O = 6.54
N[C@@H](Cc1ccc(O)cc1)C(=O)N1Cc2ccccc2C[C@H]1C(=O)NCC(=O)NCCCCC(=O)N[C@@H](CCCCNC(=O)CNC(=O)[C@@H](Cc1cccc2ccccc12)NC(=O)[C@H](Cc1ccccc1)NC(=O)[C@@H]1CCCN1C(=O)[C@@H](N)Cc1ccc(O)cc1)C(=O)O = 6.92
N[C@@H](Cc1ccc(O)cc1)C(=O)N1Cc2ccccc2C[C@H]1C(=O)NCC(=O)NCC(=O)N[C@@H](CCCCNC(=O)CNC(=O)[C@@H](Cc1cccc2ccccc12)NC(=O)[C@H](Cc1ccccc1)NC(=O)[C@@H]1CCCN1C(=O)[C@@H](N)Cc1ccc(O)cc1)C(=O)O = 6.57
N[C@@H](Cc1ccc(O)cc1)C(=O)N1Cc2ccccc2C[C@@H]1C(=O)NCC(=O)NCCCCC(=O)N[C@H](CCCCNC(=O)CCCCNC(=O)CNC(=O)[C@@H](Cc1cccc2ccccc12)NC(=O)[C@H](Cc1ccccc1)NC(=O)[C@@H]1CCCN1C(=O)[C@@H](N)Cc1ccc(O)cc1)C(=O)O = 7.08
